# experimentalSystem: TYK2 (Homo sapiens, UniProt P29597)
# Sequence (P29597 whole entry): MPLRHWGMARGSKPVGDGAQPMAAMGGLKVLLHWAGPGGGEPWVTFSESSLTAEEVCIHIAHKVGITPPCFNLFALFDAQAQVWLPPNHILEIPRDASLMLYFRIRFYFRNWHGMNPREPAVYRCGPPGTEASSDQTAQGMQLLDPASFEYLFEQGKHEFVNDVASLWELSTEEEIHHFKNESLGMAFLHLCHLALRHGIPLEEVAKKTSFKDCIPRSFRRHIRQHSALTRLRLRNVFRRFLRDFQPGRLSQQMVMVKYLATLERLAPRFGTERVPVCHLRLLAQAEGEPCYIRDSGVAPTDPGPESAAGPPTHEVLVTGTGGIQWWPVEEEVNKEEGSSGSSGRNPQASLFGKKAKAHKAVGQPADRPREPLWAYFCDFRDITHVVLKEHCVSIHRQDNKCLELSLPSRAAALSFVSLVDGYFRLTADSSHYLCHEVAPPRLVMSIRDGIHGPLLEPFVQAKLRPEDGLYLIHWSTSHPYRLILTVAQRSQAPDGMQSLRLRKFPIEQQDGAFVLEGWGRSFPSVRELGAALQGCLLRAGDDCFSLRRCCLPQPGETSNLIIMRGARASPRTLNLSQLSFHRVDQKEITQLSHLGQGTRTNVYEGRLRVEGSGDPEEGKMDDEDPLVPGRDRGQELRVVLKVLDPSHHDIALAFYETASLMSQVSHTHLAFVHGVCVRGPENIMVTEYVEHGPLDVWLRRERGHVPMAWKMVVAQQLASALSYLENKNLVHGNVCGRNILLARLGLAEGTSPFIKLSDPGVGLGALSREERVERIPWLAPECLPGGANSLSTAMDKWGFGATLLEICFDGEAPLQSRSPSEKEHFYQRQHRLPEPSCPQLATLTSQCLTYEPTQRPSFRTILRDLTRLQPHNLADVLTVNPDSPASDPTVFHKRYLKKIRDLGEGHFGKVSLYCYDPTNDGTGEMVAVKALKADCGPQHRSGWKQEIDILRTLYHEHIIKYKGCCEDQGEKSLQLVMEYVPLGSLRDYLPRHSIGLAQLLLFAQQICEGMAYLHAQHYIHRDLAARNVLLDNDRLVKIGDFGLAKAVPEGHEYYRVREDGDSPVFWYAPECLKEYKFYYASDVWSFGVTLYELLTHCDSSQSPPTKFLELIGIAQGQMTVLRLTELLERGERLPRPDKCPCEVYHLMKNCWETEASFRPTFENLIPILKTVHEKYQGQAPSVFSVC
# measurementNotes: TYK2 kinase inhibition (Table A1)
# Format: biochemical
# details: Table B1
pIC50: −log10 of the molar value. Where a name gives a salt, the structure may show the parent alone.
valueType: pIC50

N#Cc1ccc(N2CCN(C(=O)Nc3ccc4cc3CCc3cncc(c3)Nc3ncc(Cl)c(n3)N4)CC2)nc1 [Example B310, tris(trifluoroacetate)]: 7.36
CC(=O)N1CC[C@H](NC(=O)Nc2ccc3cc2CCc2cccc(c2)Nc2ncc(Cl)c(n2)N3)C1 [Example B168, trifluoroacetate]: 7.77
COc1ccc(CN2CCN(Cc3cc4cc(c3)Nc3nc(ncc3Cl)Nc3cccc(c3)CC4)CC2)cc1 [Example B197, tris(trifluoroacetate)]: 6.73
O=S(=O)(Nc1cc2cc(c1)Nc1nc(ncc1Cl)Nc1cccc(c1)CC2)c1ccccc1 [Example B203, trifluoroacetate]: 7.47
O=C(Nc1ccccc1)Nc1ccc2cc1CCc1cccc(c1)Nc1ncc(Cl)c(n1)N2 [Example B83, trifluoroacetate]: 8.28
O=C(Nc1ccc2cc1CCc1cncc(c1)Nc1ncc(Cl)c(n1)N2)N1CCN(c2ncccn2)CC1 [Example B309, tris(trifluoroacetate)]: 7.17

* * *

Catalogue of compounds with associated pIC50
# experimentalSystem: human JAK2 (a.a. 828-1132) (Homo sapiens)
# Construct: JAK2 (a.a. 828-1132); His tag (N); made in house; host or cells: insect cells (baculovirus)
# Sequence (O60674 828-1132): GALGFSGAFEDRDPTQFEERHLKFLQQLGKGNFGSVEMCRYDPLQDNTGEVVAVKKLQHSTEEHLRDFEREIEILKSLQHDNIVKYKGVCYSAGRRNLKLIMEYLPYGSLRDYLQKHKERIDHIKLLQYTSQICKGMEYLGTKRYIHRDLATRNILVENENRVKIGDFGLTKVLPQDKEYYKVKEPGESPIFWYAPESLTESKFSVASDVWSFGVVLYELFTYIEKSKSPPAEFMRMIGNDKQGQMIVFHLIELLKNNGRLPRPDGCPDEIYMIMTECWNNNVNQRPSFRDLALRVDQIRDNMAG
# measurementNotes: In vitro JAK kinase assay (HTRF, phosphorylation of a biotinylated peptide), JAK2
# Format: biochemical
# details: Table B1
pIC50: −log10 of the molar value. Structures can show the parent of a compound that is named as a salt.
valueType: pIC50

COc1cccc(S(=O)(=O)Nc2ccc3cc2CCc2cccc(c2)Nc2ncc(Cl)c(n2)N3)c1 [Example B157, trifluoroacetate]: 9.82
CN(Cc1ccc2cc1CCc1cncc(c1)Nc1ncc(Cl)c(n1)N2)CC1CCN(C(=O)Nc2cccnc2)CC1 [Example B348, (trifluoroacetate)]: 7.35
Clc1cnc2nc1Nc1ccc(CN3CCNCC3)c(c1)CCc1cccc(c1)N2 [Example B224, tris(trifluoroacetate)]: 8.05
O=C(Nc1ccc2cc1CCc1cncc(c1)Nc1ncc(Cl)c(n1)N2)N1CCC(c2ccccc2)C1 (stereo not drawn) [Example B312, bis(trifluoroacetate)]: 7.15
O=[N+]([O-])c1ccc(CN2CCN(Cc3cc4cc(c3)Nc3nc(ncc3Cl)Nc3cccc(c3)CC4)CC2)cc1 [Example B194, tris(trifluoroacetate)]: 7.92
O=S(=O)(Cc1ccccc1)Nc1ccc2cc1CCc1cccc(c1)Nc1ncc(Cl)c(n1)N2 [Example B147, trifluoroacetate]: 8.82

* * *

# experimentalSystem: human JAK2 (a.a. 828-1132) (Homo sapiens)
# Construct: JAK2 (a.a. 828-1132); His tag (N); made in house; host or cells: insect cells (baculovirus)
# measurementNotes: In vitro JAK kinase assay (HTRF, phosphorylation of a biotinylated peptide), JAK2
# Format: biochemical
# details: Table D1
Structures can show the parent of a compound that is named as a salt.
Some compounds, each annotated with its measured IC50.
valueType: IC50 (µM)

CC(=O)N1Cc2cccc(c2)Nc2nc(ncc2Cl)Nc2cccc1c2 [Example D71, trifluoroacetate]: 0.187
O=C(NCc1ccccc1)c1cc2cc(c1)OCCSc1cccc(c1)Nc1nc(ncc1Cl)N2 [Example D51, trifluoroacetate]: 0.0012
C[N+]1(C)CCN(c2ccc3cc2CCc2cccc(c2)Nc2ncc(Cl)c(n2)N3)CC1 [Example D86]: 0.087
Cc1cc(C(=O)N2CC[C@H](CC(=O)Nc3ccc4cc3CCc3cncc(c3)Nc3ncc(Cl)c(n3)N4)C2)no1 [Example D109, bis(trifluoroacetate)]: 0.189

* * *

Listed compounds paired with reported ALK % of inhibition at a concentration of 500 nM or 1 mM
# experimentalSystem: Recombinant Human Anaplastic Lymphoma Kinase (Homo sapiens, UniProt Q9UM73)
# Construct: purchased Invitrogen, Carlsbad, Calif
# Sequence (Q9UM73 19-1620): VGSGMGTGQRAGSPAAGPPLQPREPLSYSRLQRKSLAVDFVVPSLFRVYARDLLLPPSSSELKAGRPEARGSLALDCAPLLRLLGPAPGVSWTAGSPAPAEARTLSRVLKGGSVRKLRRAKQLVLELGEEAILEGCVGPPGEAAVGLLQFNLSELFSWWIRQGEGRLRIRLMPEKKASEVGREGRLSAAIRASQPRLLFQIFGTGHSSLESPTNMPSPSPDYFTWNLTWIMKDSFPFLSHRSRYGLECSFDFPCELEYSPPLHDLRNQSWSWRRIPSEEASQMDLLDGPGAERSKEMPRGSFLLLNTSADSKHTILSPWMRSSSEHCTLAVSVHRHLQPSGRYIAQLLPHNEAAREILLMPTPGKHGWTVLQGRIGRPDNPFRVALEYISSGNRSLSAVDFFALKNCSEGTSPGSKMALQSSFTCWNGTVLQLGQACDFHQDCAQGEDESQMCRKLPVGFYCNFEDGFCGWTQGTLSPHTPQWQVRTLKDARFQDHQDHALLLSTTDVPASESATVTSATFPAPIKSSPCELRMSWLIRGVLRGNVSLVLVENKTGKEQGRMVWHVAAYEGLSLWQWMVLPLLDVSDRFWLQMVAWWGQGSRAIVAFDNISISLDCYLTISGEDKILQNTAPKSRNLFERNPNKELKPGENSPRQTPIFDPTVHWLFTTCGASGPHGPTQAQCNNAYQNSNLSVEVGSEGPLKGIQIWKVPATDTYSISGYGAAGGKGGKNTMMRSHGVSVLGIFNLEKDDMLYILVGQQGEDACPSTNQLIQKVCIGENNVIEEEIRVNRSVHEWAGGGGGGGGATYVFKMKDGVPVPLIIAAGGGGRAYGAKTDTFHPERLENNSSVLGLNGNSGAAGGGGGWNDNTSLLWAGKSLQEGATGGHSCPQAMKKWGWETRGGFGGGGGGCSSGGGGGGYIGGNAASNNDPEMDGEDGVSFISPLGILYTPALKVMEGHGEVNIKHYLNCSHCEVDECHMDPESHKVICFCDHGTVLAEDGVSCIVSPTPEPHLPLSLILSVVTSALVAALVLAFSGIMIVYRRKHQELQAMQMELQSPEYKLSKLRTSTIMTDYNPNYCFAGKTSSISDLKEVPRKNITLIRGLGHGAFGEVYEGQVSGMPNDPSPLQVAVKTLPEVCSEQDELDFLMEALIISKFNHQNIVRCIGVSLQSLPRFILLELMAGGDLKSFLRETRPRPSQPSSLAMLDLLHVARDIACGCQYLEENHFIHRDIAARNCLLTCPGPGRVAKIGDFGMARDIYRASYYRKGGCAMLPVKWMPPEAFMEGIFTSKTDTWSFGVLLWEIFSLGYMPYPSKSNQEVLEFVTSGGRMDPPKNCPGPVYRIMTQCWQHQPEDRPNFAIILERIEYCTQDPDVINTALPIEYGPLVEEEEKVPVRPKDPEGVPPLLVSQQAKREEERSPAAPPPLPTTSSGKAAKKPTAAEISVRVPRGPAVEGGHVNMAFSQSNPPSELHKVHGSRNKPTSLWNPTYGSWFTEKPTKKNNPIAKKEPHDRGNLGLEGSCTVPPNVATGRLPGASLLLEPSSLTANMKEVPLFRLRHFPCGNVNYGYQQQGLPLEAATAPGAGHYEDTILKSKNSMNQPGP
# measurementNotes: ALK HTRF kinase assay
# Assay type: biochemical
# details: percentage inhibition of the example compound at a concentration of 500 nM or 1 mM (not specified which)
Where a name gives a salt, the structure may show the parent alone.
valueType: ALK % of inhibition at a concentration of 500 nM or 1 mM (%)

O=C(Nc1ccc2cc1CCc1cncc(c1)Nc1ncc(Cl)c(n1)N2)N1CCN(c2ccccc2Cl)CC1 [Example B305, bis(trifluoroacetate)]: 79
O=C(Nc1ccc2cc1CCc1cncc(c1)Nc1ncc(Cl)c(n1)N2)N1CCN(c2ncccn2)CC1 [Example B309, tris(trifluoroacetate)]: 68
O=C(Nc1ccc2cc1CCc1cncc(c1)Nc1ncc(Cl)c(n1)N2)N1CCN(c2ncc(C(F)(F)F)cc2Cl)CC1 [Example B302, tris(trifluoroacetate)]: 69
O=C(Nc1ccc2cc1CCc1cncc(c1)Nc1ncc(Cl)c(n1)N2)N1CCn2c(nnc2C(F)(F)F)C1 [Example B316, tris(trifluoroacetate)]: 64
O=C(Nc1ccc2cc1CCc1cncc(c1)Nc1ncc(Cl)c(n1)N2)N1CCC(S(=O)(=O)c2ccccc2)C1 (stereo not drawn) [Example B321, bis(trifluoroacetate)]: 36
O=C(NCCNS(=O)(=O)c1ccc(Cl)nc1)Nc1ccc2cc1CCc1cccc(c1)Nc1ncc(Cl)c(n1)N2 [Example B331, trifluoroacetate]: 27
O=C(Nc1ccc2cc1CCc1cncc(c1)Nc1ncc(Cl)c(n1)N2)N1CCN(S(=O)(=O)c2ccccc2)CC1 [Example B319, bis(trifluoroacetate)]: 58
Cc1cc(C(=O)N2CCC(CN(C)Cc3ccc4cc3CCc3cncc(c3)Nc3ncc(Cl)c(n3)N4)CC2)no1 [Example B344, tris(trifluoroacetate)]: 43
N#CC1(c2ccccc2)CCN(C(=O)Nc2ccc3cc2CCc2cncc(c2)Nc2ncc(Cl)c(n2)N3)CC1 [Example B322, bis(trifluoroacetate)]: 74
CS(=O)(=O)N1CCN(C(=O)Nc2ccc3cc2CCc2cncc(c2)Nc2ncc(Cl)c(n2)N3)CC1 [Example B318, bis(trifluoroacetate)]: 61
N#CNC(=O)Nc1ccc2cc1CCc1cccc(c1)Nc1ncc(Cl)c(n1)N2 [Example B323, trifluoroacetate]: 20
CN(Cc1ccc2cc1CCc1cncc(c1)Nc1ncc(Cl)c(n1)N2)CC1CCN(S(=O)(=O)c2ccccc2)CC1 [Example B341, tris(trifluoroacetate)]: 27
O=C(Nc1ccc2cc1CCc1cncc(c1)Nc1ncc(Cl)c(n1)N2)N1CCC(c2cnccn2)C1 (stereo not drawn) [Example B313, (trifluoroacetate)]: 20
O=C(NO)Nc1ccc2cc1CCc1cccc(c1)Nc1ncc(Cl)c(n1)N2 [Example B324, trifluoroacetate]: 16
N#Cc1cccnc1N1CCN(C(=O)Nc2ccc3cc2CCc2cncc(c2)Nc2ncc(Cl)c(n2)N3)CC1 [Example B311, tris(trifluoroacetate)]: 67
O=C(NCCNS(=O)(=O)c1ccc(Cl)s1)Nc1ccc2cc1CCc1cccc(c1)Nc1ncc(Cl)c(n1)N2 [Example B330, trifluoroacetate]: 21
CC1CN(C(=O)Nc2ccc3cc2CCc2cncc(c2)Nc2ncc(Cl)c(n2)N3)CCN1c1ccccc1 (stereo not drawn) [Example B320, tris(trifluoroacetate)]: 57
CN(Cc1ccc2cc1CCc1cncc(c1)Nc1ncc(Cl)c(n1)N2)C(=O)C1CCN(C(=O)c2ccno2)CC1 [Example B336, bis(trifluoroacetate)]: 11
O=C(NCCNS(=O)(=O)C1CC1)Nc1ccc2cc1CCc1cccc(c1)Nc1ncc(Cl)c(n1)N2 [Example B327, trifluoroacetate]: 19
O=C(Nc1ccc2cc1CCc1cncc(c1)Nc1ncc(Cl)c(n1)N2)N1CCC(c2ccccc2)CC1 [Example B314, bis(trifluoroacetate)]: 69
CC(=O)N1CCN(C(=O)Nc2ccc3cc2CCc2cncc(c2)Nc2ncc(Cl)c(n2)N3)CC1 [Example B317, bis(trifluoroacetate)]: 50
N#Cc1ccc(N2CCN(C(=O)Nc3ccc4cc3CCc3cncc(c3)Nc3ncc(Cl)c(n3)N4)CC2)nc1 [Example B310, tris(trifluoroacetate)]: 74
CNCc1ccc2cc1CCc1cncc(c1)Nc1ncc(Cl)c(n1)N2 [Example B334, trihydrochloride]: 72
N#Cc1ccc(N2CCN(C(=O)Nc3ccc4cc3CCc3cncc(c3)Nc3ncc(Cl)c(n3)N4)CC2)cc1 [Example B303, tris(trifluoroacetate)]: 81

* * *

# pIC50 per entry
# experimentalSystem: Recombinant Human Anaplastic Lymphoma Kinase (Homo sapiens, UniProt Q9UM73)
# Construct: purchased Invitrogen, Carlsbad, Calif
# measurementNotes: ALK HTRF kinase assay
# Type: biochemical
pIC50: −log10 of the molar value. Structures can show the parent of a compound that is named as a salt.
valueType: pIC50

O=S1(=O)Cc2cccc(c2)Nc2ncc(Cl)c(n2)Nc2cccc(c2)N1 [Example C9, trifluoroacetate]: < 6.00
O=S1(=O)Nc2cccc(c2)Nc2ncc(Cl)c(n2)Nc2cccc1c2 [Example C7, trifluoroacetate]: 5.72
O=C1Nc2cccc(c2)Nc2nc(ncc2Cl)Nc2cccc1c2 [Example C2, hydrochloride]: < 6.00

* * *

# experimentalSystem: human JAK1 (a.a. 837-1142) (Homo sapiens, UniProt P23458)
# Construct: human JAK1 (a.a. 837-1142); His tag (N); made in house; host or cells: insect cells (baculovirus)
# Sequence (P23458 849-1154): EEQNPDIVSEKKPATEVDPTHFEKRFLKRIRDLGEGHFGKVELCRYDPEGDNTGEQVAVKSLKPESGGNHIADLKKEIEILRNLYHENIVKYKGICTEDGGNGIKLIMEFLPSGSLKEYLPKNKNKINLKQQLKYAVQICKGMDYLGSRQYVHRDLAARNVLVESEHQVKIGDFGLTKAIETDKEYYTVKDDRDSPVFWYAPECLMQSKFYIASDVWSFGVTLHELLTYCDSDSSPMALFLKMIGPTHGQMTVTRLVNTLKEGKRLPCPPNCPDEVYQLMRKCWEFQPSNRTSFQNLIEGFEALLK
# measurementNotes: In vitro JAK kinase assay (HTRF, phosphorylation of a biotinylated peptide), JAK1
# Format: biochemical
# details: Table D1; read-out: JAK1 IC50
Counter-ions that a name gives are not always drawn.
The compounds listed here are annotated with their IC50.
valueType: IC50 (nM)

O=S(=O)(c1ccccc1F)N1CCC(CCNc2ccc3cc2CCc2cncc(c2)Nc2ncc(Cl)c(n2)N3)CC1 [Example D221, tris(trifluoroacetate)]: 20
Cc1cc(C(=O)N2CCC[C@@H](CC(=O)Nc3ccc4cc3CCc3cncc(c3)Nc3ncc(Cl)c(n3)N4)C2)no1 [Example D208, bis(trifluoroacetate)]: 18
Cc1cc(C(=O)Nc2cc3cc(c2)OCCSc2cccc(c2)Nc2nc(ncc2Cl)N3)no1 [Example D58, trifluoroacetate]: 6.5
CC(=O)N1CCC[C@@H](CC(=O)Nc2ccc3cc2CCc2cncc(c2)Nc2ncc(Cl)c(n2)N3)C1 [Example D204, bis(trifluoroacetate)]: 7.2
Clc1cnc2nc1Nc1cccc(c1)OCCc1cccc(c1)N2 [Example D8, trifluoroacetate]: 7.9
CC(=O)N1CCC(Nc2ccc3cc2CCc2cncc(c2)Nc2ncc(Cl)c(n2)N3)CC1 [Example D158, tris(trifluoroacetate)]: 150
O=C(C[C@@H]1CCCN(C(=O)c2ccccc2)C1)Nc1ccc2cc1CCc1cncc(c1)Nc1ncc(Cl)c(n1)N2 [Example D206, bis(trifluoroacetate)]: 9.2
O=C(C[C@@H]1CCN(c2nc3ccccc3s2)C1)Nc1ccc2cc1CCc1cncc(c1)Nc1ncc(Cl)c(n1)N2 [Example D137, tris(trifluoroacetate)]: 1.6
N#Cc1cccc(NC(=O)N2CC[C@@H](CC(=O)Nc3ccc4cc3CCc3cncc(c3)Nc3ncc(Cl)c(n3)N4)C2)c1 [Example D115, bis(trifluoroacetate)]: 19
O=C(Cn1c(=O)oc2c3cc(cc21)Nc1nc(ncc1Cl)Nc1cccc(c1)CC3)NCc1ccccc1 [Example D186, trifluoroacetate]: 53
N#Cc1ccccc1NC(=O)N1CC[C@@H](CC(=O)Nc2ccc3cc2CCc2cncc(c2)Nc2ncc(Cl)c(n2)N3)C1 [Example D116, bis(trifluoroacetate)]: 23
O=C(Nc1ccccc1)N1CCN(c2ccc(-c3cc4cc(c3)Nc3ncc(Cl)c(n3)Nc3cccc(c3)OCC4)cn2)CC1 [Example D42, bis(trifluoroacetate)]: 2.2
